assay: Study 101, plasma epinephrine pharmacokinetics; type: in vivo; conditions: human, im, 0.5 mg, 0.5 mg IM, read-out: Tmax (Median) (converted)
parameter_measured: Tmax (min)
Write the answer as a number in min, unit excluded.

Input: Specify Tmax for CNC[C@H](O)c1ccc(O)c(O)c1 [Epinephrine IM, epinephrine] and stop.
Output: 48

###

experiment: Human Phase 1 clinical study, plasma epinephrine pharmacokinetics and bioavailability; assay type: in vivo; conditions: 0.5 mg IM, read-out: median Tmax (converted)
parameter_measured: Tmax (min)
Write the answer as a number in min, unit excluded.

Input: Specify Tmax for CNC[C@H](O)c1ccc(O)c(O)c1 [Epinephrine IM, epinephrine] and stop.
Output: 48

###

experiment: Human Phase 1 clinical study, plasma epinephrine pharmacokinetics and bioavailability; type: in vivo; conditions: 0.3 mg IM, read-out: median Tmax (converted)
parameter_measured: Tmax (min)
Write the answer as a number in min, unit excluded.

Input: Specify Tmax for CNC[C@H](O)c1ccc(O)c(O)c1 [Epinephrine IM, epinephrine] and stop.
Output: 48

###

Experiment: Study 101, plasma epinephrine pharmacokinetics
Type: in vivo
Conditions: human, im, 0.3 mg, 0.3 mg IM, read-out: Tmax (Mean) (converted)
Method: Each patient was provided each treatment of the trial with 72-hour washout periods between each treatment, beginning with a 3.5 mg intranasal dose, followed by a 0.3 mg intramuscular dose, followed by a 0.5 mg intramuscular dose, and concluding with a 5.5 mg intranasal dose, with a safety follow-up performed 3 to 5 days after the final dose was administered. […]
parameter_measured: Tmax (min)
Write the answer as a number in min, unit excluded.

Input: Specify Tmax for CNC[C@H](O)c1ccc(O)c(O)c1 [Epinephrine IM, epinephrine] and stop.
Output: 41.4

###

assay: Study 101, plasma epinephrine pharmacokinetics; type: in vivo; conditions: human, im, 0.5 mg, 0.5 mg IM, read-out: Tmax (Mean) (converted)
parameter_measured: Tmax (min)
Write the answer as a number in min, unit excluded.

Input: Specify Tmax for CNC[C@H](O)c1ccc(O)c(O)c1 [Epinephrine IM, epinephrine] and stop.
Output: 40.9
